Tested on: breast carcinoma cell line MCF-7
Assay: Calcein AM cytotoxicity, MCF7
Assay type: cell-based, human
Settings: Homo sapiens, MCF7, 72 h, read-out: IC 50, MCF7
What IC50 was measured for each of the following?

Consider the worked cases shown below.
Fc1ccc(CNc2ncnc3nc[nH]c23)cc1Cl
> 167 µM
Cc1ccccc1CNc1ncnc2nc[nH]c12
> 167 µM
O=[N+]([O-])c1ccc(CNc2ncnc3nc[nH]c23)cc1
> 167 µM
Ic1cccc(CNc2ncnc3nc[nH]c23)c1
130 µM
COc1ccc(CNc2ncnc3nc[nH]c23)cc1O [6-(3-hydroxy-4-methoxybenzylamino)purine]
> 167 µM

# return IC50 for each item in the list
1. c1coc(CNc2ncnc3[nH]cnc23)c1 [Kinetin, reference compound]
2. O=[N+]([O-])c1cccc(CNc2ncnc3nc[nH]c23)c1
3. Fc1ccc(CNc2ncnc3nc[nH]c23)c(F)c1

Ans:
1. > 167 µM
2. > 167 µM
3. > 167 µM

* * *

Tested on: Rosa hybrida (pot rose cultivar) explants
Assay: In vitro and post vitro shoot multiplication and rooting of rose
Assay type: in vivo
Settings: In vitro, 10 μM, 8 weeks
For each of the compounds below, state its Number of new shoots per explant.

COc1cccc(CNc2ncnc3nc[nH]c23)c1 [6-(3-methoxybenzylamino)purine]
4.3
Oc1cccc(CNc2ncnc3nc[nH]c23)c1 [meta-topolin, 6-(3-hydroxybenzylamino)purine]
2.1
COc1ccccc1CNc1ncnc2nc[nH]c12 [6-(2-methoxybenzylamino)purine]
1.0

Q: I am curious: what Number of new shoots per explant value has been reported for c1ccc(CNc2ncnc3nc[nH]c23)cc1 [BAP, 6-benzylaminopurine, reference compound] ?
Ans: 3.8

* * *

Answer each item with its documented Activity (%) [10^−4 mol · l^−1 BAP = 100%].
Test system: tobacco callus Nicotiana tabacum L. cv. Wisconsin 38
Assay: Cytokinin-dependent tobacco callus growth
Type: cell-based
Conditions: fresh callus weight at the concentration with highest activity

Fc1ccc(CNc2ncnc3nc[nH]c23)cc1
122 (±12) %
Fc1cccc(CNc2ncnc3nc[nH]c23)c1
135 (±8) %
Fc1ccc(CNc2ncnc3nc[nH]c23)c(F)c1F
76 (±4) %
Ic1cccc(CNc2ncnc3nc[nH]c23)c1
76 (±8) %
COc1ccc(CNc2ncnc3nc[nH]c23)c(OC)c1
21 (±5) %
Clc1ccc(CNc2ncnc3nc[nH]c23)cc1Cl
45 (±7) %
Brc1cccc(CNc2ncnc3nc[nH]c23)c1
85 (±11) %

Q: Returns the measured Activity (%) [10^−4 mol · l^−1 BAP = 100%] for the input molecule. Input: `COc1cc(OC)c(CNc2ncnc3nc[nH]c23)c(OC)c1`
Ans: 13 (±6) %

* * *

Tested on: tobacco callus Nicotiana tabacum L. cv. Wisconsin 38
Test: Cytokinin-dependent tobacco callus growth
Format: cell-based
Settings: fresh callus weight at the concentration with highest activity
Assay readout: Activity (%) [10^−4 mol · l^−1 BAP = 100%]

Sample records with Activity (%) [10^−4 mol · l^−1 BAP = 100%]:
COc1cccc(CNc2ncnc3nc[nH]c23)c1
76 (±20) %
Clc1cccc(CNc2ncnc3nc[nH]c23)c1
94 (±6) %
Cc1ccccc1CNc1ncnc2nc[nH]c12
118 (±3) %
Brc1ccccc1CNc1ncnc2nc[nH]c12
102 (±5) %
Cc1cccc(CNc2ncnc3nc[nH]c23)c1
79 (±5) %
Brc1ccc(CNc2ncnc3nc[nH]c23)cc1
15 (±9) %

Consider the additional molecule presented here.
Q: Param item = `COc1ccc(CNc2ncnc3nc[nH]c23)cc1` ; retrieve measured Activity (%) [10^−4 mol · l^−1 BAP = 100%].
Ans: 39 (±17) %
